Tested on: Escherichia coli
ASSAY_INFO: Antibacterial activity against Escherichia coli W4573 assessed as bacterial growth inhibition by CLSI protocol based assay
Assay type: functional
MEASURED_ATTRIBUTE: MIC (mg/L)
All answers are understood in mg/L, so give the number only.

// below: answered compounds
stdin: Any idea what its MIC is? The compound is COc1ccc2ccc(=O)n(CCCN[C@H]3CC[C@H]4[C@H](C3)OC(=O)N4c3ccc4c(n3)NC(=O)CO4)c2n1
stdout: 0.25

stdin: What value of MIC has been reported for the following compound? COc1cnc2ccc(=O)n(CCCN[C@H]3CC[C@H]4[C@H](C3)OC(=O)N4c3ccc4c(n3)NC(=O)CO4)c2c1
stdout: 0.25

stdin: State the recorded MIC for this entry: COc1cnc2ccc(=O)n(CCN[C@H]3CC[C@H]4[C@H](C3)OC(=O)N4c3ccc4c(n3)NC(=O)CO4)c2n1
stdout: 0.12

stdin: Name the recorded MIC for COc1ccc2ccc(=O)n(CCN[C@H]3CC[C@H]4[C@H](C3)OC(=O)N4c3ccc4c(n3)NC(=O)CO4)c2c1 .
stdout: 0.25

stdin: Return reported MIC; argument: COc1ccc2ccc(=O)n(CCN[C@H]3CC[C@H]4[C@H](C3)OC(=O)N4c3ncc4c(n3)NC(=O)CO4)c2n1
stdout: 0.5

Next:
stdin: # query: MIC of entry N#Cc1ccc2ccc(=O)n(CCN[C@H]3CC[C@H]4[C@H](C3)OC(=O)N4c3ccc4c(n3)NC(=O)CO4)c2c1
stdout: 0.03

stdin: Fill in: MIC of COc1ccc2ccc(=O)n(CCN[C@H]3CC[C@H]4[C@H](C3)OC(=O)N4c3ccc4c(n3)NC(=O)CO4)c2n1 is ___
stdout: 0.12

stdin: What does the data say about its MIC? Entry: COc1ccc2ccc(=O)n(CCN[C@H]3CC[C@H]4[C@H](C3)OC(=O)N4c3ccc4c(n3)NC(=O)C(C)(C)O4)c2n1
stdout: 2

stdin: Request the reported MIC associated with N#Cc1cnc2ccc(=O)n(CCN[C@H]3CC[C@H]4[C@H](C3)OC(=O)N4c3ccc4c(n3)NC(=O)CS4)c2c1
stdout: 0.5

stdin: Form field: reported MIC of COc1ccc2ccc(=O)n(CCN[C@@H]3CC[C@@H]4[C@H](C3)OC(=O)N4c3ccc4c(n3)NC(=O)CO4)c2n1
stdout: 0.25

stdin: Could you tell me which MIC is on file for O=C1COc2ccc(N3C(=O)O[C@H]4C[C@@H](NCCCn5c(=O)cnc6ccc(F)cc65)CC[C@@H]43)nc2N1 ?
stdout: 0.12
